test-system: Bcl-2, P10415
Sequence (P10415 1-217): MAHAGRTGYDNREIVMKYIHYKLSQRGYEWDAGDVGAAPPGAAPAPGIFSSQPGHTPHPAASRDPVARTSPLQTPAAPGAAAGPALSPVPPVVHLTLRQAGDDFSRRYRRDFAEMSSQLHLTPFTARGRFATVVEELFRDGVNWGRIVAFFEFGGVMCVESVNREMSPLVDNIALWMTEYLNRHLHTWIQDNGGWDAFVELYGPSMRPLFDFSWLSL
test: peptide SPOT array, c-Myc-tagged receptor at 1 uM or 100 nM, anti-c-Myc-Cy3
readout-kind: SPOT signal as a fraction of Bim BH3's signal on the same receptor and array

>>> print(df.to_string())
                                 binder  experimental_result
0     PEDLQDVGWFLHKLSQQILKKEKEKK [TLR5]                 0.07
1  RTNNYQLSDELRKNGVELTSLRQKVA [GRIPAP1]                 0.14
2    FERVEQMCIQIKEVGDRVNYIKRSLQ [TRPM7]                 0.38

response.value for CSTNNPSQAKLRRELDESLQVAERLT [CLU] (field: SPOT signal as a fraction of Bim BH3's signal on the same receptor and array) = 0.01
